The reported numbers originate from patent US20090012085A1.

Method Description: Phase I dose-escalating study, plasma pharmacokinetics in patients with solid tumor
Type: in vivo, human
Conditions: human, plasma, 100 mg, 100 mg QD (continuous), C1D1 (n = 6), plasma; read-out: AUC(0-24), mean (% CV)
Property: AUC(0-t) (µg·h/mL)
Write the answer as a number in µg·h/mL, unit excluded.

IN: Provide only the value of recorded AUC(0-t) for `Cc1[nH]c(/C=C2\C(=O)Nc3ccc(F)cc32)c(C)c1C(=O)NC[C@H](O)CN1CCOCC1`
OUT: 1.8

* * *

Method Description: Phase I dose-escalating study, plasma pharmacokinetics in patients with solid tumor
Format: in vivo, human
Conditions: human, plasma, 25 mg QD, 25 mg QD 4/1 (n = 6), nominal time 10 h; read-out: Mean plasma concentration following the last dose on cycle 1 day 28
Property: concentration at 10 h (ng/mL)
Lab book: enter the figure in ng/mL, no units written.

IN: Give the reported value of concentration at 10 h for this record: `Cc1[nH]c(/C=C2\C(=O)Nc3ccc(F)cc32)c(C)c1C(=O)NC[C@H](O)CN1CCOCC1`
OUT: 36.8
